Origin of values: patent US20260209347A1

- Measured On: T1, human NKG2A/CD94 on cells (CHOK1-hNKG2A/CD94) (human, UniProt P26715 1-233; Q13241 1-179)
- T1 construct: whole, on cells; the killing assays (functional rows) used NK92 cells or primary human NK cells that carry the receptor; also called human NKG2A overexpressing cells; human NKG2A overexpressing cell line
- Assay Name: FACS on CHOK1-hNKG2A/CD94 cells
Observable: binding result

cAb-14 (antibody, human IgG4 S228P, kappa, V domains shown, human-mouse chimeric antibody, human IgG4 constant region; also called antibody number 14; NKG2A chimeric antibody) VH: EVQLQQSVAELVRPGASVKLSCTASGFNIKNTYIHWVKQRPEQGLEWIGRIDPANGNTKYAPKFQGKASIIVDTSSNTAYLQLSSLTSEDTAIYYCARYYASSPYYYNMDYWGQGTSVTVSS VL: DIQMTQSPASLSVSVGETVTITCRASENIYSNLAWYQQKQGKSPQLLVYAATNLADGVPSRFSGSGSGTQYSLKINSLQSEDFGSYYCQHFWGTFTFGSGTKLEIKR :: binds
cAb-35 (antibody, human IgG4 S228P, kappa, V domains shown, human-mouse chimeric antibody, human IgG4 constant region; also called antibody number 35; NKG2A chimeric antibody) VH: EVQLQQSVAELVRPGASVKLSCTASGFNIKNTYMDWVKQRPEQGLEWIGRIDPANGNTKHAPKFQGKATITTDTSSNTAYLQLSSLTSEDTAIYYCARWGGWDVRFAYWGQGTLVTVSA VL: DIKMTQSPSSMYASLGERVTINCQASQDINSYLSWFQQKPGKSPKTLIHRANRLVDGVPSRFSGSGSGQDYSLTISSLEYEDMGIYYCLQFDEFPLTFGAGTKLELKR :: binds
cAb-33 (antibody, human IgG4 S228P, kappa, V domains shown, human-mouse chimeric antibody, human IgG4 constant region; also called antibody number 33; NKG2A chimeric antibody) VH: EVQLQQSVAELVRPGASVKLSCTASGFNIKNTYMDWVKQRPEQGLEWIGRIDPANGNTKYAPKFQGKATITADTSSNTAYLQLSSLTSEDTAIYYCAREGNWDDWFVYWGQGTLVTVSA VL: DVLMTQTPLSLPVSLGDQASISCRSSQSIVHSNGNTYLEWFLQKPGQSPKLLIYKVSNRFSGVPDRFSGSGSGTDFTLKISRVEAEDLGVYYCFQGSHVPPTFGGGTKLEIKR :: binds
